Target: TRPML1 (Homo sapiens, UniProt Q9GZU1)
Construct: expressed in transfected cells; host or cells: HEK T-REx cells stably expressing GCaMP6f and TRPML1
Sequence (Q9GZU1 whole entry): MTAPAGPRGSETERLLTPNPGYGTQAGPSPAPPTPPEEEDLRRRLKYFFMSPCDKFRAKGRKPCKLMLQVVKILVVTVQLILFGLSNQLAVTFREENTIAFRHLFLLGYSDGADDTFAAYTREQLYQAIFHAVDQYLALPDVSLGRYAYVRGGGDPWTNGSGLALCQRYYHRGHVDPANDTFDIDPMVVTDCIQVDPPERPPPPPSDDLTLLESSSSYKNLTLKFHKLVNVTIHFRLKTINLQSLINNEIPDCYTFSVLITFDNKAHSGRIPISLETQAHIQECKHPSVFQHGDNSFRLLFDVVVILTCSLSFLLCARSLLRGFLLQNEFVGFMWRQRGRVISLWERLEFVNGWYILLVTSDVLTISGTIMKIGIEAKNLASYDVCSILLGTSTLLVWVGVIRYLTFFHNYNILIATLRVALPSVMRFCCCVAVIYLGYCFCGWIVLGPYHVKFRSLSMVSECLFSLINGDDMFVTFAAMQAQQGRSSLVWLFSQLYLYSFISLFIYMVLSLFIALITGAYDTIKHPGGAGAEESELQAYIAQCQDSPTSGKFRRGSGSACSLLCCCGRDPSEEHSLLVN
Assay: Cellular TRPML1 assay (FLIPR, GCaMP6f calcium read-out)
Assay type: cell-based
Settings: HEKT-REx/GCaMP6f/TRPML1 cells, FLIPR TETRA, kinetic response over 300 seconds; read-out: TRPML1 FLIPR pEC50 (converted)
Kindly state EC50 for each of the entries shown.

Task: Missing value: EC50, TRPML1 (Homo sapiens, UniProt Q9GZU1), entry CCc1oc(N2CC(CC)(CC)C2)nc1C(=O)Nc1ccc(O[C@@H]2C[C@@H]3C[C@@H]3C2)c(F)c1 [Example 245] . Fill in?
Output: 10 to 1000 nM

Task: Missing value: EC50, TRPML1 (Homo sapiens, UniProt Q9GZU1), entry CCC1(COC)CN(c2nc(C(=O)Nc3cc(F)c(O[C@@H]4C[C@@H]5C[C@@H]5C4)c(F)c3)c(CC(F)(F)F)o2)C1 [Example 165] . Fill in?
Output: 10 to 1000 nM

Task: Missing value: EC50, TRPML1 (Homo sapiens, UniProt Q9GZU1), entry O=C(Nc1ccc(OC2CCCCC2)c(F)c1)c1nc(N2CCCC2)oc1CC(F)(F)F [Example 65] . Fill in?
Output: 1000 to 10000 nM

Task: Missing value: EC50, TRPML1 (Homo sapiens, UniProt Q9GZU1), entry CCC1(CC)CN(c2nc(C(=O)Nc3ccc(OC4CCCOC4)c(F)c3)c(CC(F)(F)F)o2)C1 (centres unmarked) [Example 158] . Fill in?
Output: 10 to 1000 nM

Task: Missing value: EC50, TRPML1 (Homo sapiens, UniProt Q9GZU1), entry O=C(Nc1ccc(OC2CCCC23CC3)c(F)c1)c1nc(N2CCCC2)oc1CC(F)(F)F (centres unmarked) [Example 52] . Fill in?
Output: 1000 to 10000 nM

Task: Missing value: EC50, TRPML1 (Homo sapiens, UniProt Q9GZU1), entry CCC1(CC)CN(c2nc(C(=O)Nc3cc(C)c(NC4CC5CC(C5)C4)c(F)c3)c(CCF)o2)C1 (centres unmarked) [Example 292] . Fill in?
Output: 1000 to 10000 nM

Task: Missing value: EC50, TRPML1 (Homo sapiens, UniProt Q9GZU1), entry Cc1oc(N2CC3(C2)CC(F)(F)C3)nc1C(=O)Nc1ccc(N2CCCCC2)c(F)c1 [Example 89] . Fill in?
Output: 1000 to 10000 nM

Task: Missing value: EC50, TRPML1 (Homo sapiens, UniProt Q9GZU1), entry Cc1oc(N2CCCC2CO)nc1C(=O)Nc1ccc(N2CCCCC2)c(F)c1 (centres unmarked) [Example 93] . Fill in?
Output: 10000 to 100000 nM

# credit: patent US12098145B2
